Measured IC50 on Dual specificity tyrosine-phosphorylation-regulated kinase 1B (Homo sapiens) follows.
Sequence (Q9Y463 whole entry): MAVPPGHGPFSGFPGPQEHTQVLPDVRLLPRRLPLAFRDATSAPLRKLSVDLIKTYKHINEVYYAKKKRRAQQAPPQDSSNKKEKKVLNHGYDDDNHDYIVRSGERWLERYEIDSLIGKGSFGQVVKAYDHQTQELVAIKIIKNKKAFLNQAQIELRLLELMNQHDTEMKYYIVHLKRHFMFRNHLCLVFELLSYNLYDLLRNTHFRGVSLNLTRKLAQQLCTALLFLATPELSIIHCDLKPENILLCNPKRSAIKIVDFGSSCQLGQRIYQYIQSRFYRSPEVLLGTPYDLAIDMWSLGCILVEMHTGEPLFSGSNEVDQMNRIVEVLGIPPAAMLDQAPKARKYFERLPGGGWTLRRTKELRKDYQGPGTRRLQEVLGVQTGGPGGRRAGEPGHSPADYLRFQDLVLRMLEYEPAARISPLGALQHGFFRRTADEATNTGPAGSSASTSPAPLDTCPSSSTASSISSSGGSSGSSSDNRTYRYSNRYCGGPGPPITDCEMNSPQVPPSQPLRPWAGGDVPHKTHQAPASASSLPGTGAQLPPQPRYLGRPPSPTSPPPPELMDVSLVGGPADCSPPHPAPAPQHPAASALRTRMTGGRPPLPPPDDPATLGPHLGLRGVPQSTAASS
Value expressed in nM; do not type the unit.

Solved entries:
1. COC[C@@H](CC(C)C)NC1=N/C(=C\c2ccc3[nH]cnc3c2)C(=O)N1 | 1080
2. COC[C@@H](CC(C)C)NC1=N/C(=C\c2ccc3c(c2)OCO3)C(=O)N1 | 23
3. COC[C@@H](CC(C)C)NC1=N/C(=C\c2ccc3c(cnn3C)c2)C(=O)N1 | 358

QUERY: Hello, please tell me recorded IC50 for this one: COC[C@@H](CC(C)C)NC1=N/C(=C\c2ccc3ncsc3n2)C(=O)N1
RESULT: 85

QUERY: Hello, please tell me recorded IC50 for this one: COC[C@@H](CC(C)C)NC1=N/C(=C\c2ccc3nnsc3c2)C(=O)N1C
RESULT: 751

QUERY: Hello, please tell me recorded IC50 for this one: COC[C@@H](CC(C)C)NC1=N/C(=C\c2ccc3c(c2)OCO3)C(=O)N1C
RESULT: 41.1

QUERY: Hello, please tell me recorded IC50 for this one: COC[C@@H](CC(C)C)NC1=N/C(=C\c2ccc3c(c2)CCO3)C(=O)N1
RESULT: 71.6

QUERY: Hello, please tell me recorded IC50 for this one: COC[C@@H](CC(C)C)NC1=N/C(=C\c2ccc3nn(C)cc3c2)C(=O)N1
RESULT: 78.3

====

Measured IC50 on Dual specificity protein kinase CLK2 (Homo sapiens, UniProt P49760) follows.
Sequence (P49760 whole entry): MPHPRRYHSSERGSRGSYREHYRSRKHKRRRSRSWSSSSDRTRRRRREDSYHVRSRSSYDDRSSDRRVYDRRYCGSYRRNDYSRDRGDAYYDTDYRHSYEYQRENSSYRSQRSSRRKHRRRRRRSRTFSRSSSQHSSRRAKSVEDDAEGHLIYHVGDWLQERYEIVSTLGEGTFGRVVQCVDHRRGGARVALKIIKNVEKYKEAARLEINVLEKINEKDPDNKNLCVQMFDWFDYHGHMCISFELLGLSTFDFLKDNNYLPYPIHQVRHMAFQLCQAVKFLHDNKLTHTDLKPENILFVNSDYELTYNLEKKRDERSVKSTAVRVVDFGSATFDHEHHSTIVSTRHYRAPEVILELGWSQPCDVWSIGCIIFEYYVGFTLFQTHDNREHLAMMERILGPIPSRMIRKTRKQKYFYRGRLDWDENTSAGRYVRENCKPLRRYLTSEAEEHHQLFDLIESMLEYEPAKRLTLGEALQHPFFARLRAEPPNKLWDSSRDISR

Solved entries:
1) COC[C@@H](CC(C)C)NC1=N/C(=C\c2ccc3ncsc3c2)C(=O)N1C1CCCCC1 | > 10 µM
2) COC[C@@H](CC(C)C)NC1=N/C(=C\c2cnc3ncsc3c2)C(=O)N1 | > 10 µM

Shifting focus to the compound that follows.
QUERY: Hello, please tell me recorded IC50 for this one: COC[C@@H](CC(C)C)NC1=N/C(=C\c2cc3scnc3cn2)C(=O)N1
RESULT: > 10 µM
